fold activation values for the compounds below.
Molecular target: PPH-5 (Caenorhabditis elegans, UniProt Q9NES8)
Construct: made in house
Sequence (Q9NES8 whole entry): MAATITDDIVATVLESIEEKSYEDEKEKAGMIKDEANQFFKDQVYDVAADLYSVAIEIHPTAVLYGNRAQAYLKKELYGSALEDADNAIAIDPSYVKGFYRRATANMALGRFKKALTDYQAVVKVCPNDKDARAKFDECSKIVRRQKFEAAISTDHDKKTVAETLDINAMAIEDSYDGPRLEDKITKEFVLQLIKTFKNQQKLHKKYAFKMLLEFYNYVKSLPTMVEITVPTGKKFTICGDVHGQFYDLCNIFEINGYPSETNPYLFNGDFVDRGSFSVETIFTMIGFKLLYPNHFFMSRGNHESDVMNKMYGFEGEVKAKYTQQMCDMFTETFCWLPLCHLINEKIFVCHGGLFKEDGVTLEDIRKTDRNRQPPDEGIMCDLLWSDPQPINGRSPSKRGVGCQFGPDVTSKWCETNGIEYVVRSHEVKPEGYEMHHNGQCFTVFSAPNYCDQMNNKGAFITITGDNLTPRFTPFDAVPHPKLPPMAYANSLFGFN
Experiment: pNPP-based phosphatase assay with nematode PPH-5
Type: biochemical, C. elegans
Conditions: (sat.)

| COMPOUND | fold activation [fold] |
| --- | --- |
| O=c1cc2nc(-c3ccc(F)cc3)nc(SCc3ccc(Br)cc3)n2[nH]1 [P5SA-4] | 7.8 |
| CNC(=O)c1c(NC(=O)COCC(=O)Nc2sc3c(c2C(=O)NC)CCC3)sc2c1CCC2 [P5SA-5] | 8.4 |
| COc1ccc(-c2nc(Cc3ccc(Cl)cc3)no2)cc1OC [P5SA-2] | 9.6 |
| FC(F)(F)c1c2c(nc3c(-c4ccc(Cl)cc4)cnn13)CCC2 [P5SA-1] | 3.7 |

Each recorded value in this set is attributed to patent EP2878677A1.
